Conditions: 288.15 K; 5000 kPa; Liquid; Vibrating tube method
mass density listing for selected molecules.
Note: unit kg/m3 is implicit; provide only the numeric part.

Worked cases, answers included:
- compoundString: "CCOC(C)(C)C"
  unitTag: "kg/m3"
  mass density: 751.53
- compoundString: "COC(C)(C)C"
  unitTag: "kg/m3"
  mass density: 751.33

What the record says about CCCCCOCCCCC : mass density is 790.95

What the record says about CCCCOCC : mass density is 759.82

What the record says about CC(C)OC(C)C : mass density is 734.61

What the record says about CC(C)CCOCCC(C)C : mass density is 782.95

What the record says about CCCCOC : mass density is 756.01

What the record says about CCCOCCC : mass density is 757.69
